Test: Metabolic stability in rat liver microsomes
Type: in vitro ADME
Design: dose or concentration left out as unconfirmed
Details: read-out: Microsomal half-life t1/2 Rat
OUTCOME MEASURE: half-life (min)

>>> observed_result("C[C@H]1[C@@H](O)O[C@@H]2O[C@@]3(C)CC[C@H]4[C@H](C)CC[C@@H]1[C@@]24OO3 [DHA 2, dihydroartemisinin]")
90
>>> observed_result("C[C@H]1[C@H](NS(N)(=O)=O)O[C@@H]2O[C@@]3(C)CC[C@H]4[C@H](C)CC[C@@H]1[C@@]24OO3 [Sulfamide 7]")
94.9
>>> observed_result("C[C@H]1[C@H](N2C=CS(=O)(=O)CC2)O[C@@H]2O[C@@]3(C)CC[C@H]4[C@H](C)CC[C@@H]1[C@@]24OO3")
28.8
